# testedOn: Solute carrier family 2, facilitated glucose transporter member 1 (Homo sapiens) (UniProt P11166)
# Sequence (P11166 whole entry): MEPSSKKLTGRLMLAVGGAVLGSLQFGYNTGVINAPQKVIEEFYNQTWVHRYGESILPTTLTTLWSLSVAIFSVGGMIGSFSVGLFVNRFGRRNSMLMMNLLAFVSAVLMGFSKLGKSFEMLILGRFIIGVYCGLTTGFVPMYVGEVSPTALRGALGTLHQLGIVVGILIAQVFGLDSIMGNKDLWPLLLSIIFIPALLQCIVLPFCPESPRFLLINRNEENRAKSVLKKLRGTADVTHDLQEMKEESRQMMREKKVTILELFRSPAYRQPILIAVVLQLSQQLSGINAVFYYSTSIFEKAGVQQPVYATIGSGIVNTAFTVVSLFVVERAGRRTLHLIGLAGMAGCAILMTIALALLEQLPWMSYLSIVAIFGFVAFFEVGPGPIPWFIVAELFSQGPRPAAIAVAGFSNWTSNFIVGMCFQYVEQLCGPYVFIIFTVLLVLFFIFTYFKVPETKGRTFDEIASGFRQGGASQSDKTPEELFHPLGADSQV
# protocolText: ST_JUDE_LEISH: Cytotoxicity at 2uM final concentration against transgenic Leishmania Mexicana promastigotes LmGLUT1 that are glucose transport deficient and complemented with the human glucose transporter GLUT1. Activity is measured by DNA content using SYBR green in vitro
# Type: functional
Task for the reader: assign each of the following compounds its reported inhibition.
One number for each entry, in %.

Examples from the recorded data:
{"columns": ["compound", "unitOfMeasurement", "inhibition"],
 "data": [
  ["CN1CCCC(CN2CCN(Cc3ccc(-c4ccc(-c5nc6ccccc6[nH]5)s4)cc3)CC2)C1 (centres undefined)", "%", 22.9],
  ["CC(O)C1CCCCN1C(=O)c1cccc(-c2ccc(-c3nc4ccccc4[nH]3)s2)c1 (centres undefined)", "%", 3.87],
  ["COc1ccc(-c2cccc(NC(=O)c3cccc(C#N)c3)c2)cc1CN(C)CCN(C)C", "%", 1.23],
  ["O=C(/C=C/c1ccc(Cl)c(Cl)c1)NCCCCCN1CCCN(C(=O)Nc2cccc(Cl)c2)CC1", "%", 0.54],
  ["O=C(Nc1ccc(OC2CCN(Cc3ccc(F)cc3)C2)c(Cl)c1)c1ccc(F)cc1 (centres undefined)", "%", -0.04]
]}

Dear colleague, could you send me inhibition for each of the items below? Thanks.
1. O=C(Cc1ccc(NC(=O)c2ccc(O)c(-c3ccc(Cl)c(Cl)c3)c2)cc1)NCCN1CCCCC1
2. CCCCCCN1CCC(CNCc2cccc([N+](=O)[O-])c2)CC1
3. OC(c1nnc(S)n1-c1ccccc1)C(O)c1nnc(S)n1-c1ccccc1 (centres undefined)
4. CCCCOC(=O)[C@H](CCC)NC(=O)c1ccc(NS(=O)(=O)c2ccc3nc(N)[nH]c(=O)c3c2)cc1

Result:
1: -0.79; 2: 5.28; 3: 10.1; 4: 0.2

---

# testedOn: Hexose transporter 1 (Plasmodium falciparum) (UniProt O97467)
# protocolText: ST_JUDE_LEISH: Cytotoxicity at 2uM final concentration against transgenic Leishmania Mexicana promastigotes LmPfHT that are glucose transport deficient and complemented with the Plasmodium falciparum hexose transporter. Activity is measured by DNA content using SYBR green in vitro
# Assay type: functional
Task for the reader: assign each of the following compounds its reported inhibition.
One number for each entry, in %.

Examples from the recorded data:
{"columns": ["compound", "obsValue"],
 "data": [
  ["CNCC(C)(C)c1nc(-c2ccc(Cl)c(O)c2)c(-c2ccncc2)[nH]1", -1.37],
  ["O=[N+]([O-])c1cccc(CNC2CCN(Cc3ccc(-c4ccccc4)cc3)CC2)c1", 8.06],
  ["CN(C)CCn1c(=N)n(CC(O)c2ccc(Cl)c(Cl)c2)c2ccccc21 (stereo unspecified)", 4.53]
]}

Dear colleague, could you send me inhibition for each of the items below? Thanks.
1. Cc1ccc(C(=O)NC2CCN(CCNC(=O)Nc3cc(C)nc4ccccc34)CC2)cc1
2. COc1ccccc1CCN1CCC(CN(C)Cc2ccc(O)c(Cl)c2)CC1
3. CN(C)CC1CCCN1Cc1ccccc1-c1cnn(C)c(=O)c1Oc1ccccc1F (stereo unspecified)
4. C[C@H](NC(=O)c1c(CN2CCC(NC(=O)CC(C)(C)C)CC2)c(-c2cccs2)nc2ccccc12)C1CCCCC1
5. CC(C)N1CCN(C(=O)c2ccc(CNCCCN3CCN(c4ccccc4C(F)(F)F)CC3)s2)CC1

Result:
1. 0.53
2. 5.47
3. 1.75
4. 1.16
5. 0.84
